# credit: PubChem BioAssay (NCATS)

test: qHTS of pediatric cancer cell lines to identify multiple opportunities for drug repurposing: Confirmatory screen for Rh41 cells (AID 1347123); conditions: Rh41 rhabdomyosarcoma cells, viability/cytotoxicity qHTS; series mostly up to 45.9 µM;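 also: potency is read from the fitted curve at half-maximal effect; 48 h compound exposure; nearly all actives have a fitted effect of over 60% in size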
Results filed as inconclusive are left out. The source made the active and inactive calls. Calls follow the shape of the dose curve; as a rule, active = well fitted cell-killing curve with a large enough effect; inconclusive = small, poorly fitted or top-dose-only effect; inactive = no such curve, though single readings can be large or run the other way.
QUANTITY: Potency

compound_string=COC(=O)Nc1ccc(-c2nc(N3CCOCC3)c3cnn(C4CCN(Cc5cccnc5)CC4)c3n2)cc1 quantity=Potency assay_value="1.31 µM (active)"
compound_string=O=C(C=Cc1cccc(S(=O)(=O)Nc2ccccc2)c1)NO quantity=Potency assay_value="5.37 µM (active)"
compound_string=Cc1ccc(NC(=O)C2(c3ccc4c(c3)OC(F)(F)O4)CC2)nc1-c1cccc(C(=O)O)c1 quantity=Potency assay_value="8.27 µM (active)"
compound_string=COc1cc2nccc(Oc3ccc(NC(=O)C4(C(=O)Nc5ccc(F)cc5)CC4)cc3)c2cc1OC quantity=Potency assay_value="26.1 µM (active)"
compound_string=CC1(C)OC2=C(C(=O)c3ccccc3C2=O)[C@H](NCc2ccccc2)[C@H]1O quantity=Potency assay_value="2.93 µM (active)"
